Molecular target: hEP3A/Gqi5 (Homo sapiens)
Sequence (P43115 whole entry): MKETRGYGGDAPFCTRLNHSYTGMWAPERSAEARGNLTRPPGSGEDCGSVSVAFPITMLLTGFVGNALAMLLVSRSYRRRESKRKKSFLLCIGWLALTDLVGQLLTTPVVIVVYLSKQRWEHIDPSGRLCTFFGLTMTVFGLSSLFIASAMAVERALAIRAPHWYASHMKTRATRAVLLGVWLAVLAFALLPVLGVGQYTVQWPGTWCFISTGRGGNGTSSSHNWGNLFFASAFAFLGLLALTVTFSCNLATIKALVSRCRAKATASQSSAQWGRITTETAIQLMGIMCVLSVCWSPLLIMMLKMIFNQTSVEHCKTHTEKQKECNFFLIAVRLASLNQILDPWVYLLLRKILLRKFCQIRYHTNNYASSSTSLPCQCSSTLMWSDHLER
Test: FLIPR calcium signal, hEP3A/Gqi5
Settings: HEK-293(EBNA) cells, read-out: OTHER RECEPTORS Ca2+ EC50: EP3
pEC50: −log10 of the molar value.
Catalogue of molecules with associated pEC50

molecule: CC1(C)C(=O)[C@H](C/C=C\CCCC(=O)O)[C@@H](/C=C/C(O)CCc2ccc3ccccc3c2)[C@@H]1O (single isomer, unassigned) [drawing 23]
target_or_system: hEP3A/Gqi5 (Homo sapiens)
pEC50: 5.40

molecule: CC1(C)C(=O)[C@H](CC#CCCCC(=O)O)[C@@H](/C=C/C(O)CCc2ccc3ccccc3c2)[C@@H]1O (single isomer, unassigned) [drawing 25]
target_or_system: hEP3A/Gqi5 (Homo sapiens)
pEC50: 5.99

molecule: CC1(C)C(=O)[C@H](C/C=C\CCCC(=O)O)[C@@H](/C=C/C(O)CCc2ccc3ccccc3c2)[C@@H]1O (single isomer, unassigned) [drawing 24]
target_or_system: hEP3A/Gqi5 (Homo sapiens)
pEC50: 5.99
